// data source = ChEMBL document CHEMBL1177886

# method_description: Cytotoxicity against human THP-1 cells at 10 uM
# test_parameters: THP-1, 10 µM
property: Activity (%)

>  <cpd_smiles>
CCN(CC)CC1(CN(CC)CC)Oc2cc(OC)cc(OC)c2C1=O

>  <property>
Activity

>  <numeric_value>
37

$$$$
>  <cpd_smiles>
COc1cc(OC)c2c(c1)OC(CN1CCOCC1)(CN1CCOCC1)C2=O

>  <property>
Activity

>  <numeric_value>
66

$$$$
>  <cpd_smiles>
COc1cc(OC)c2c(c1)OC(CN1CCN(C)CC1)(CN1CCN(C)CC1)C2=O

>  <property>
Activity

>  <numeric_value>
29

$$$$
>  <cpd_smiles>
COc1cc(OC)c2c(c1)OC(CN1CCCC1)(CN1CCCC1)C2=O

>  <property>
Activity

>  <numeric_value>
83

$$$$
>  <cpd_smiles>
CCCCN(CCCC)CC1(CN(CCCC)CCCC)Oc2cc(OC)cc(OC)c2C1=O

>  <property>
Activity

>  <numeric_value>
65

$$$$
>  <cpd_smiles>
COc1cc(OC)c2c(c1)OC(CN1CCCCC1)(CN1CCCCC1)C2=O

>  <property>
Activity

>  <numeric_value>
21

$$$$

###

Each entry below carries its recorded MIC.
# Test system: Aspergillus fumigatus
# method_description: Antifungal activity against Aspergillus fumigatus NCIM 902 after 72 hrs by disc diffusion method
# Type: functional
# test_parameters: Aspergillus fumigatus, NCIM 902, 72 h

>  <cpd_smiles>
CCCCN(CCCC)CC1(CN(CCCC)CCCC)Oc2cc(OC)cc(OC)c2C1=O

>  <MIC, µg/mL>
25

$$$$
>  <cpd_smiles>
COc1cc(OC)c2c(c1)OC(CN1CCOCC1)(CN1CCOCC1)C2=O

>  <MIC, µg/mL>
25

$$$$
>  <cpd_smiles>
CCN1CCN(CC2(CN3CCN(CC)CC3)Oc3cc(OC)cc(OC)c3C2=O)CC1

>  <MIC, µg/mL>
50

$$$$
>  <cpd_smiles>
OC(Cn1cncn1)(Cn1cncn1)c1ccc(F)cc1F

>  <MIC, µg/mL>
25

$$$$
>  <cpd_smiles>
COc1cc(OC)c2c(c1)OC(CN1CCCCC1)(CN1CCCCC1)C2=O

>  <MIC, µg/mL>
50

$$$$
>  <cpd_smiles>
COc1cc(OC)c2c(c1)OC(CN1CCN(C)CC1)(CN1CCN(C)CC1)C2=O

>  <MIC, µg/mL>
50

$$$$
>  <cpd_smiles>
COc1cc(OC)c2c(c1)OC(CN(C)C)(CN(C)C)C2=O

>  <MIC, µg/mL>
25

$$$$
>  <cpd_smiles>
COc1cc(OC)c2c(c1)OC(CN1CCCC1)(CN1CCCC1)C2=O

>  <MIC, µg/mL>
25

$$$$
>  <cpd_smiles>
CCN(C)CC1(CN(C)CC)Oc2cc(OC)cc(OC)c2C1=O

>  <MIC, µg/mL>
50

$$$$
>  <cpd_smiles>
CCN(CC)CC1(CN(CC)CC)Oc2cc(OC)cc(OC)c2C1=O

>  <MIC, µg/mL>
25

$$$$
